Biological target: human ΔF508-CFTR (Homo sapiens, UniProt P13569, DEL508-508)
Construct: expressed in transfected cells
Sequence (P13569 with tags, fused parts or gaps DEL508-508): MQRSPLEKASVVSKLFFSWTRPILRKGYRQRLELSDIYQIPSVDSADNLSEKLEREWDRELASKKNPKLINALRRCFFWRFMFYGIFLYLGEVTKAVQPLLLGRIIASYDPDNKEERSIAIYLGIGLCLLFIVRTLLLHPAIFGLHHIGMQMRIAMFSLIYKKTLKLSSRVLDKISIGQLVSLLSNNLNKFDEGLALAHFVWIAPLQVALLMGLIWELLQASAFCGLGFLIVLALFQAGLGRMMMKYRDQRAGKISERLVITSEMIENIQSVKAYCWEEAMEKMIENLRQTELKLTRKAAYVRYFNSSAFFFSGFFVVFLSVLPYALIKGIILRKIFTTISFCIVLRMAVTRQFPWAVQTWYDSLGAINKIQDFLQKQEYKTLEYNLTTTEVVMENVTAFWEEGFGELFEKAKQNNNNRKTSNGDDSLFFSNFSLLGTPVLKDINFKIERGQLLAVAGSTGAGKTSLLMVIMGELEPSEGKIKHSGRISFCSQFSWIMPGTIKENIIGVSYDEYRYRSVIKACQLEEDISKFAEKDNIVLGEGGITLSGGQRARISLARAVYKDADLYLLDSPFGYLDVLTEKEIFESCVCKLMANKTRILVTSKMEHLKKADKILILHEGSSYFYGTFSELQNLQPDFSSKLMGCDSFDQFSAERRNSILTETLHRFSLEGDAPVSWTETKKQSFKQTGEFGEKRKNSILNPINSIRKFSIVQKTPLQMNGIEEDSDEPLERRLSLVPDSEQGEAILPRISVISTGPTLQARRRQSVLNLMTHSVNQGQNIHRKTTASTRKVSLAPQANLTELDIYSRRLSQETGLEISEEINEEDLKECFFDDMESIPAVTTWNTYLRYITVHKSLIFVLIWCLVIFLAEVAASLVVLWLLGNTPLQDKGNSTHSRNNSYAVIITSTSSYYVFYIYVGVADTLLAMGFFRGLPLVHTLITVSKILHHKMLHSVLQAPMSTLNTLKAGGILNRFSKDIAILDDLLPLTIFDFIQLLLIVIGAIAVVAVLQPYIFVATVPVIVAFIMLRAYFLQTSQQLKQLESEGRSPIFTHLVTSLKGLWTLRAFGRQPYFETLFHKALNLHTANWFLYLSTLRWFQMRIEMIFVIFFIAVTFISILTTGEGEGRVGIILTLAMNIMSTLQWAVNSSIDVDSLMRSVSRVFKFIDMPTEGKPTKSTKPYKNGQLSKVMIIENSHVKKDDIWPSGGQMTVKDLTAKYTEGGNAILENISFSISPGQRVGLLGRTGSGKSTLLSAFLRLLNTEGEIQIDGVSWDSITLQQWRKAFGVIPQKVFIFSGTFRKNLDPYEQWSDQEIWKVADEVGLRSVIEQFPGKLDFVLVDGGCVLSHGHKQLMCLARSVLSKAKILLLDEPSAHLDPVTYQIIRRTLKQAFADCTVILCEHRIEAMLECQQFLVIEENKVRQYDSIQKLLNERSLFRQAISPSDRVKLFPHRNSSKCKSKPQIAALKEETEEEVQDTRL
Assay: CFTR-YFP High Throughput Assay (HTS YFP flux assay, corrector / potentiator protocols)
Format: cell-based
Conditions: FRT cells stably expressing human ΔF508-CFTR and YFP-H148Q/I152L; normalized to positive control; read-out: Emax (% Efficacy, EMax normalized to the positive control)
Description: Assays for Detecting and Measuring the Effect of Compounds on dF508-CFTR Channels CFRT-YFP High Throughput Assay: Corrector Assay: The following protocol is designed to selectively screen small molecule compounds for F508del CFTR corrector activities in the HTS YFP flux assay. In this protocol, the cells are incubated with testing compounds for 24 hours, washed with PBS, stimulated with forskolin and a standard potentiator, and read on a 384-well HTS plate reader, such as the Hamamatsu FDDD-6000. […]
Could you please report measured Emax for the items listed next?

IN: Report measured Emax on human ΔF508-CFTR (Homo sapiens, UniProt P13569, DEL508-508); entry: CCN(CC)S(=O)(=O)c1ccc2nnc(NC(C)c3ccc(OC)cc3)n2c1 (stereo not drawn)
OUT: > 80%

IN: Would you please give the reported Emax of CCN(CC)S(=O)(=O)c1ccc2nnc(NC[C@H]3CCCO3)n2c1 with human ΔF508-CFTR (Homo sapiens, UniProt P13569, DEL508-508)?
OUT: > 80%

IN: State Emax on human ΔF508-CFTR (Homo sapiens, UniProt P13569, DEL508-508). Entry: CCN(CC)S(=O)(=O)c1ccc2nnc(NC3CCOc4ccccc43)n2c1 (stereo not drawn)
OUT: > 80%

IN: State, for human ΔF508-CFTR (Homo sapiens, UniProt P13569, DEL508-508), measured Emax of the compound listed here: CCN(CC)S(=O)(=O)c1ccc2nnc(NC(=O)c3ccccc3)n2c1
OUT: 40 to 80%

IN: Provide measured Emax on human ΔF508-CFTR (Homo sapiens, UniProt P13569, DEL508-508) for CCN(CC)S(=O)(=O)c1ccc2nnc(NCC(O)COC)n2c1 (stereo not drawn) please.
OUT: > 80%

IN: Identify measured Emax obtained with human ΔF508-CFTR (Homo sapiens, UniProt P13569, DEL508-508) for O=S(=O)(c1ccccc1)c1ccc2nnc(NCC(O)c3ccc(F)cc3)n2c1 (stereo not drawn) .
OUT: > 80%

IN: Report Emax on human ΔF508-CFTR (Homo sapiens, UniProt P13569, DEL508-508) for this entry: CCN(CC)S(=O)(=O)c1ccc2nnc(NCc3ccccc3)n2c1C
OUT: 10 to 40%

IN: State, for human ΔF508-CFTR (Homo sapiens, UniProt P13569, DEL508-508), measured Emax of the compound listed here: O=S(=O)(c1ccccc1)c1ccc2nc(NCc3ccc(C4CCOCC4)cc3)nn2c1
OUT: 40 to 80%

IN: For human ΔF508-CFTR (Homo sapiens, UniProt P13569, DEL508-508), give the measured Emax of the entry COC[C@@H](Nc1nnc2ccc(S(=O)(=O)c3ccccc3)cn12)c1ccccc1
OUT: > 80%

IN: Provide Emax, system human ΔF508-CFTR (Homo sapiens, UniProt P13569, DEL508-508), entry O=S(=O)(c1ccccc1)c1ccc2nnc(NCCC3CCCCC3)n2c1
OUT: > 80%

IN: Give human ΔF508-CFTR (Homo sapiens, UniProt P13569, DEL508-508) Emax for the following compound: C[C@@H](Nc1nnc2ccc(S(=O)(=O)c3ccccc3)cn12)c1ccccc1
OUT: > 80%

IN: Give Emax; test system human ΔF508-CFTR (Homo sapiens, UniProt P13569, DEL508-508); compound COc1cccc(S(=O)(=O)c2ccc3nnc(N[C@H](C)c4ccccc4)n3c2)c1
OUT: > 80%

IN: Report measured Emax on human ΔF508-CFTR (Homo sapiens, UniProt P13569, DEL508-508); entry: O=S(=O)(c1ccccc1)c1ccc2nc(NCc3ccc(-c4ccccn4)cc3)nn2c1
OUT: > 80%

IN: Print human ΔF508-CFTR (Homo sapiens, UniProt P13569, DEL508-508) Emax for CCN(CC)S(=O)(=O)c1ccc2nnc(N[C@@H](Cc3ccccc3)C(=O)N3CCCCC3)n2c1 .
OUT: > 80%

IN: Supply Emax measured with human ΔF508-CFTR (Homo sapiens, UniProt P13569, DEL508-508) for O=S(=O)(c1ccccc1)c1ccc2nc(NC[C@@H](O)c3ccccc3)nn2c1 .
OUT: > 80%

IN: Give measured Emax for COc1ccc(S(=O)(=O)Nc2ccc3nnc(NCc4ccccc4)n3c2)cc1 (human ΔF508-CFTR (Homo sapiens, UniProt P13569, DEL508-508)).
OUT: 40 to 80%

IN: Retrieve Emax on human ΔF508-CFTR (Homo sapiens, UniProt P13569, DEL508-508); query CCN(CC)S(=O)(=O)c1ccn2c(NCC(C)(C)C)nnc2c1
OUT: > 80%

IN: Find Emax for C[C@@H](Nc1nc2ccc(S(=O)(=O)c3ccccc3)cn2n1)c1ccccc1 on human ΔF508-CFTR (Homo sapiens, UniProt P13569, DEL508-508) and write it down.
OUT: > 80%
